run.description: Antiproliferative activity against human U251 cells after 48 hrs by SRB assay
Type: functional
experimental.conditions: U-251, 48 h
Some compounds, each annotated with its measured GI50.

>  <compound>
CCN1C(=O)CS/C1=N\NC(=O)c1cc2c([nH]c3ccccc32)c(-c2ccc(OC)cc2)n1

>  <result.modifier>
=

>  <GI50 (nM)>
1950

$$$$
>  <compound>
O=C(NN1C(=O)CSC1c1ccccc1)c1cc2c([nH]c3ccccc32)c(-c2ccccc2F)n1 (stereo not drawn)

>  <result.modifier>
=

>  <GI50 (nM)>
84100

$$$$
>  <compound>
O=C(N/N=C1\SCC(=O)N1c1ccccc1)c1cc2c([nH]c3ccccc32)c(-c2ccccc2)n1

>  <result.modifier>
=

>  <GI50 (nM)>
17500

$$$$
>  <compound>
O=C(NN1C(=O)CSC1c1ccccc1)c1cc2c([nH]c3ccccc32)c(-c2ccccc2)n1 (stereo not drawn)

>  <result.modifier>
=

>  <GI50 (nM)>
250

$$$$
>  <compound>
CCN1C(=O)CS/C1=N\NC(=O)c1cc2c([nH]c3ccccc32)c(-c2ccccc2Cl)n1

>  <result.modifier>
=

>  <GI50 (nM)>
740

$$$$
>  <compound>
O=C(NN1C(=O)CSC1c1ccccc1)c1cc2c([nH]c3ccccc32)c(-c2cccc([N+](=O)[O-])c2)n1 (stereo not drawn)

>  <result.modifier>
>

>  <GI50 (nM)>
100000

$$$$
>  <compound>
O=C(N/N=C1\SCC(=O)N1c1ccccc1)c1cc2c([nH]c3ccccc32)c(-c2cccc([N+](=O)[O-])c2)n1

>  <result.modifier>
=

>  <GI50 (nM)>
1590

$$$$
>  <compound>
O=C1CS/C(=N\NC(=O)c2cc3c([nH]c4ccccc43)c(-c3ccccc3F)n2)N1

>  <result.modifier>
=

>  <GI50 (nM)>
9570

$$$$
